Values from paper PMC11994961

PROCEDURE_TEXT: Pharmacokinetic study of rivaroxaban in rats, alone and with ribociclib (UPLC-MS/MS plasma levels)
Format: in vivo, Sprague-Dawley rats
TEST_CONTEXT: Sprague-Dawley, rat, plasma, po, 1 mg/kg, RIVA 1 mg/kg + RIBO 60 mg/kg for 8 days
MEASURED_PROPERTY: AUC(0-inf) (ng·h/mL)
The reply should contain only the number, in ng·h/mL.

Ask: Consider the molecule shown here: O=C(NC[C@H]1CN(c2ccc(N3CCOCC3=O)cc2)C(=O)O1)c1ccc(Cl)s1 What is its recorded AUC(0-inf)?
Result: 4470

###

PROCEDURE_TEXT: Pharmacokinetic study of ribociclib in rats, alone and after rivaroxaban or apixaban (UPLC-MS/MS plasma levels)
Type: in vivo, Sprague-Dawley rats
TEST_CONTEXT: Sprague-Dawley, rat, plasma, po, 60 mg/kg, rats, oral RIBO 60 mg/kg alone; read-out: MRT0- ∞
MEASURED_PROPERTY: MRT inf (h)
The reply should contain only the number, in h.

Ask: Consider the molecule shown here: CN(C)C(=O)c1cc2cnc(Nc3ccc(N4CCNCC4)cn3)nc2n1C1CCCC1 [RIBO, ribociclib] What is its recorded MRT inf?
Result: 11.8
